# Test target: XylE-WW (xylose:proton symporter XylE) (Escherichia coli, UniProt P0AGF4, G58W/L315W)
# Test method notes: MST
# Format: binding

Compound | Kd
OC[C@H]1OC(O)[C@H](O)[C@@H](O)[C@@H]1O (stereo partly drawn) [D-glucose] | 27.5 µM
